- Test system: 205y lipase (-SP/TM)
- test: Effect of inhibitors on lipase activity
- Format: biochemical, Bacillus sphaericus 205y
- condition summary: 10 mM inhibitor, 37°C, 30 min prior to lipase assay; mean ± SD, n=3
A collection of molecules and their measured Relative activity (100%)
outcome measure: Relative activity (100%)

{"columns": ["molecule", "outcome measure", "unit info", "test value"],
 "data": [
  ["OCCS", "Relative activity (100%)", "%", 76.3],
  ["O=S(=O)(F)Cc1ccccc1 [PMSF, phenylmethylsulfonyl fluoride]", "Relative activity (100%)", "%", 70.3],
  ["O[C@H](CS)[C@H](O)CS (racemic)", "Relative activity (100%)", "%", 45.5],
  ["O=C(O)CN(CCN(CC(=O)O)CC(=O)O)CC(=O)O", "Relative activity (100%)", "%", 40.1]
]}

====

- System: 205y lipase (-SP/TM)
- test: Effect of inhibitors on lipase activity
- Format: biochemical, Bacillus sphaericus 205y
- condition summary: 1 mM inhibitor, 37°C, 30 min prior to lipase assay; mean ± SD, n=3
Square brackets hold non-standard residues; d marks the D form. Peptide text beside a SMILES is read from it. * marks the point of attachment. Sta = CC(C)C[C@H](N)[C@@H](O)CC(=O)O; Isovaleryl = CC(C)CC(=O)*
Entries annotated with measured Relative activity (100%)

{"columns": ["compound", "system", "Relative activity (100%)"],
 "data": [
  ["O=S(=O)(F)Cc1ccccc1 [PMSF, phenylmethylsulfonyl fluoride]", "205y lipase (-SP/TM)", "74.0 ± 3.3%"],
  ["OCCS", "205y lipase (-SP/TM)", "97.2 ± 2.7%"],
  ["O[C@H](CS)[C@H](O)CS (racemic)", "205y lipase (-SP/TM)", "83.4 ± 2.0%"],
  ["CC(C)CC(=O)N[C@H](C(=O)N[C@H](C(=O)N[C@@H](CC(C)C)[C@@H](O)CC(=O)N[C@@H](C)C(=O)N[C@@H](CC(C)C)[C@@H](O)CC(=O)O)C(C)C)C(C)C [Pepstatin A, pepstatin A] (Isovaleryl-VV[Sta]A[Sta]-OH)", "205y lipase (-SP/TM)", "86.9 ± 1.5%"]
]}

====

- Tested on: 205y lipase (-SP/TM)
- test: Effect of organic solvents on lipase activity
- Type: biochemical, Bacillus sphaericus 205y
- condition summary: enzyme:solvent 3:1 v/v, 37°C, 30 min; relative to activity without organic solvent

{"columns": ["compound", "enhancement in activity"],
 "data": [
  ["C[S+](C)[O-] [DMSO, dimethyl sulfoxide]", "more than 30%"],
  ["CC#N", "more than 30%"],
  ["CCCCCCCCCCCCCCCC", "more than 30%"],
  ["CO", "more than 30%"],
  ["CCCCCCCCCC", "more than 30%"],
  ["CCO", "more than 30%"]
]}
